Hey, just so you know, these numbers are from patent US12552834.

# target of assay: T1, ENAH EVH1 domain (monomeric, wild type) (human, UniProt Q03173 1-111 (mouse entry))
# T1 construct: ENAH residue numbers in the text count from the Met at position 25 of this entry; also called ENAH EVH1 WT; Mena EVH1 WT
# T1 sequence (Q03173 other isoform, or with tags, fused parts or gaps limits assumed): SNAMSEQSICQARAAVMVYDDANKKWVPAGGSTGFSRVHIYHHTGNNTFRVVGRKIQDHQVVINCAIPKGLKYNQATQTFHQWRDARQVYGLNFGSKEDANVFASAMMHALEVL
# assay notes: BLI, steady state; SUMO-peptide immobilised, EVH1 monomer in solution
pKd: −log10 of the molar value.
Below, each entry is listed alongside its reported pKd.
property label: pKd

binder	property label	reported measurement
FYB1 36-mer peptide (biotinylated (BAP tag), Tested as a biotinylated BAP-6xHis-SUMO-peptide fusion) peptide: MAGGLNDIFEAQKIEWHEDTGGSSHHHHHHGSGSGSDSEVNQEAKPEVKPEVKPETHINLKVSDGSSEIFFKIKKTTPLRRLMEAFAKRQGKEMDSLTFLYDGIEIQADQTPEDLDMEDNDIIEAHREQIGGSGSGSGSGGIFPPPPDDDIYDGIEEEDADDGFPAPPKQLD	pKd	4.61
LPP 36mer peptide (biotinylated (BAP tag), Tested as a BAP-6xHis-SUMO-peptide fusion in BLI and ITC) peptide: MAGGLNDIFEAQKIEWHEDTGGSSHHHHHHGSGSGSDSEVNQEAKPEVKPEVKPETHINLKVSDGSSEIFFKIKKTTPLRRLMEAFAKRQGKEMDSLTFLYDGIEIQADQTPEDLDMEDNDIIEAHREQIGGSGSGKQPGGEGDFLPPPPPPLDDSSALPSISGNFPPPPPL	pKd	5.39
TJAP1 36-mer peptide (biotinylated (BAP tag), Tested as a biotinylated BAP-6xHis-SUMO-peptide fusion) peptide: MAGGLNDIFEAQKIEWHEDTGGSSHHHHHHGSGSGSDSEVNQEAKPEVKPEVKPETHINLKVSDGSSEIFFKIKKTTPLRRLMEAFAKRQGKEMDSLTFLYDGIEIQADQTPEDLDMEDNDIIEAHREQIGGSGSGPEEELPLPAFEKLNPYPTPSPPHPLYPGRRVIEFSE	pKd	4.62
SHROOM3 36-mer peptide (biotinylated (BAP tag), Tested as a biotinylated BAP-6xHis-SUMO-peptide fusion) peptide: MAGGLNDIFEAQKIEWHEDTGGSSHHHHHHGSGSGSDSEVNQEAKPEVKPEVKPETHINLKVSDGSSEIFFKIKKTTPLRRLMEAFAKRQGKEMDSLTFLYDGIEIQADQTPEDLDMEDNDIIEAHREQIGGSGSGVYSMDDFPPPPPHTVCEAQLDSEDPEGPRPSFNKLS	pKd	5.03
FHOD1 peptide (biotinylated (BAP tag), Tested as a biotinylated BAP-6xHis-SUMO-peptide fusion) peptide: MAGGLNDIFEAQKIEWHEDTGGSSHHHHHHGSGSGSDSEVNQEAKPEVKPEVKPETHINLKVSDGSSEIFFKIKKTTPLRRLMEAFAKRQGKEMDSLTFLYDGIEIQADQTPEDLDMEDNDIIEAHREQIGGSGSGSVPPPPPLPPPPPIKGPFPPPPPLPLAAPLPHSVPD	pKd	4.30
SUMO-ActA (ActA 36-mer peptide fused to SUMO) (biotinylated (BAP tag), Control peptide used in BLI and ITC; also called ActA peptide) peptide: MAGGLNDIFEAQKIEWHEDTGGSSHHHHHHGSGSGSDSEVNQEAKPEVKPEVKPETHINLKVSDGSSEIFFKIKKTTPLRRLMEAFAKRQGKEMDSLTFLYDGIEIQADQTPEDLDMEDNDIIEAHREQIGGGFNAPATSEPSSFEFPPPPTEDELEIIRETASSLDS	pKd	5.28
TNK2 36-mer peptide (biotinylated (BAP tag), Tested as a biotinylated BAP-6xHis-SUMO-peptide fusion) peptide: MAGGLNDIFEAQKIEWHEDTGGSSHHHHHHGSGSGSDSEVNQEAKPEVKPEVKPETHINLKVSDGSSEIFFKIKKTTPLRRLMEAFAKRQGKEMDSLTFLYDGIEIQADQTPEDLDMEDNDIIEAHREQIGGSGSGTPVVDWDARPLPPPPAYDDVAQDEDDFEICSINSTL	pKd	4.67
